# Target or system: Fructose-bisphosphate aldolase (Mycobacterium tuberculosis (strain ATCC 25618 / H37Rv))
# Experimental details: Mtb FBA enzyme inhibitors, primary screen, biochemical, fluorescence, strain H37Rv (AID 588726);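 note: 0% = vehicle and 100% = reference inhibitor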
# Condition context: purified M. tuberculosis FBA, fluorescence read-out, at 1 µM, hits give high values
Among all 360,000 compounds or so, about 8,200 (2.3%) were called active. Only a selection was taken, and actives are over-represented in it overall.
Provide the reported inhibition of each item.

Ask: Fill in the blank: the reported inhibition of Cc1ccc(Cn2c(C)nc3c(c2=O)c2nc4ccccc4nc2n3Cc2ccco2)cc1 is ____.
Reply: 47.6% (active)

Ask: Fill in the blank: the reported inhibition of CCOC(=O)c1ccn(-c2nc(-c3ccco3)cc(C(F)(F)F)n2)n1 is ____.
Reply: 10.6% (inactive)

Ask: Fill in the blank: the reported inhibition of c1ccc(-c2cn3c(n2)CCc2ccc4cccnc4c2-3)cc1 is ____.
Reply: 6.65% (inactive)

Ask: Fill in the blank: the reported inhibition of CN1CCN(Cc2ccc(OC(F)(F)F)cc2)CC1 is ____.
Reply: -3.02% (inactive)

Ask: Fill in the blank: the reported inhibition of COc1ccc(N2CCN(C(=O)CSc3nnc4ncccn34)CC2)cc1 is ____.
Reply: -2.52% (inactive)

Ask: Fill in the blank: the reported inhibition of Cc1ccc(OCC(=O)c2cc(C)n(Cc3ccco3)c2C)c([N+](=O)[O-])n1 is ____.
Reply: -5.32% (inactive)

Ask: Fill in the blank: the reported inhibition of CCCc1cc(C(=O)N2CCCC(CO)(CCCc3ccccc3)C2)n(C)n1 (configuration not stated) is ____.
Reply: -1.51% (inactive)

Ask: Fill in the blank: the reported inhibition of COc1ccc(C(=O)/C=C/Nc2ccccn2)cc1 is ____.
Reply: 4.41% (inactive)

Ask: Fill in the blank: the reported inhibition of Cc1cc(S(=O)(=O)c2cc3ccc(O)c(C)c3oc2=O)ccc1F is ____.
Reply: 72.4% (active)

Ask: Fill in the blank: the reported inhibition of Cc1nc(NCc2ccccc2)c(C(N)=O)c2c1COC(C)(C)C2 is ____.
Reply: 22.3% (inactive)

Ask: Fill in the blank: the reported inhibition of CCCCc1nc(NCCN)c(C#N)c2c1CSC(C)(C)C2 is ____.
Reply: 5.12% (inactive)

Ask: Fill in the blank: the reported inhibition of Cc1ccc(S(=O)(=O)N(C)CC(=O)OCC(=O)N2CC(=O)Nc3ccccc32)cc1 is ____.
Reply: 0.54% (inactive)

Ask: Fill in the blank: the reported inhibition of CC(C)C(c1nnnn1C(C)(C)C)N1CCN(Cc2cccnc2)CC1 (configuration not stated) is ____.
Reply: 0.62% (inactive)

Ask: Fill in the blank: the reported inhibition of Cc1ccccc1-c1csc(C(O)c2cccc(Cl)c2)n1 (configuration not stated) is ____.
Reply: -4.41% (inactive)

Ask: Fill in the blank: the reported inhibition of COc1ccc(CNC(=O)COc2ccccc2C(=O)c2cnn(-c3ccccc3)c2)cc1OC is ____.
Reply: 6.29% (inactive)

Ask: Fill in the blank: the reported inhibition of Cc1ccnc(NC(=O)C2CCN(S(=O)(=O)c3c(C)c(C)cc(C)c3C)CC2)c1 is ____.
Reply: 1.99% (inactive)

Ask: Fill in the blank: the reported inhibition of Cc1ccc(C)c(S(=O)(=O)N2CC(=O)Nc3ccccc32)c1 is ____.
Reply: 31.2% (active)

Ask: Fill in the blank: the reported inhibition of O=C1NC(c2cc3c(cc2Cl)OCO3)Oc2ccccc21 (configuration not stated) is ____.
Reply: 0.96% (inactive)

Ask: Fill in the blank: the reported inhibition of NC(=O)CSc1nnc(-c2cccc(S(=O)(=O)N3CCOCC3)c2)o1 is ____.
Reply: -1.59% (inactive)

Ask: Fill in the blank: the reported inhibition of Cc1ccc(S(=O)(=O)N2CC(=O)Nc3ccccc32)cc1C is ____.
Reply: -0.25% (inactive)

Ask: Fill in the blank: the reported inhibition of CCn1c(SC)nc(O)c(C(c2ccc(OC)c(O)c2)c2c(O)nc(SC)n(CC)c2=O)c1=O is ____.
Reply: 0.76% (inactive)

Ask: Fill in the blank: the reported inhibition of CC(=O)NC(CC(=O)Nc1nccs1)c1ccccc1 (configuration not stated) is ____.
Reply: 6.36% (inactive)
